# System: CD8+ T cells
# test-summary: Cytokine and cytolytic granule production of CD8+ T cells stimulated with plate-bound anti-CD3/CD28
# Type: cell-based, mouse
# condition-details: pretreated with compound vs vehicle (DMSO); stimulated with 5 μg/ml plate-bound anti-CD3/CD28
readout-kind: cytolytic granule and cytokine productions of CD8+ T cells

| molecule | assayed-system | obs-value |
| --- | --- | --- |
| CCCCCCCC[C@H](SCCCCCC)C(=O)Nc1c(SC)cc(C)nc1SC [CP-113,818] | CD8+ T cells | augmented |
| CSc1cc(C)nc(SC)c1NC(=O)CN1CCN(CCSc2nc3ccccc3[nH]2)CC1 [K604] | CD8+ T cells | augmented |
| CC[C@H](C)C(=O)O[C@H]1C[C@@H](C)C=C2C=C[C@H](C)[C@H](CC[C@@H]3C[C@@H](O)CC(=O)O3)[C@H]21 [Lovastatin] | CD8+ T cells | significantly decreased |
| CCN(CC)CCO[C@H]1CC[C@@]2(C)C(=CC[C@@H]3[C@@H]2CC[C@]2(C)C(=O)CC[C@@H]32)C1 [U18666A] | CD8+ T cells | significantly decreased |

Just for reference, patent US11571400B2 is where these values come from.
